- study_target: β2 -receptors (Cavia porcellus)
- Construct: tested on anesthetized guinea pigs; from tissue; host or cells: living anesthetized guinea pig, airways (Konzett-Rossler)
- procedure_details: β2-mimetic activity: antagonism to acetylcholine bronchospasm in anesthetized guinea pigs (Konzett-Rossler)
- Assay type: in vivo
- settings: i.v. (Table I)
For each entry below, report its Duration of activity (β2 -mimetic activity) value.

Problem: Requested field: Duration of activity (β2 -mimetic activity). Item: Cl.N#Cc1cc(C(O)CNC2CCC2)cc(Br)c1N (stereo not shown)
Solution: > 50 min

Problem: Now the same for Nc1c(Cl)cc(C(O)CNC2CCC2)cc1C(F)(F)F (stereo not shown)
Solution: > 125 min

Problem: Now the same for Cl.Nc1c(F)cc(C(O)CNC2CC2)cc1Cl (stereo not shown)
Solution: > 50 min

Problem: Now the same for Br.N#Cc1cc(C(O)CNC2CCC2)ccc1N (stereo not shown)
Solution: 40 min

Problem: Now the same for CC(C)(C)NCC(O)c1cc(Cl)c(N)c([N+](=O)[O-])c1 (stereo not shown)
Solution: > 80 min

Problem: Now the same for CC(C)NCC(O)c1cc(F)c(N)c(C#N)c1.Cl (stereo not shown)
Solution: > 40 min

Problem: Now the same for CCC(C)(C)NCC(O)c1ccc(N)c(C#N)c1 (stereo not shown)
Solution: 65 min

* * *

- procedure_details: acute toxicity in mice (LD50, Litchfield and Wilcoxon)
- settings: mouse, in vivo, iv, groups of 10, i.v., deaths within 14 days, d(+)-isomers (Table III), read-out: acute toxicity LD50 (Table III)
Where a name gives a salt, the structure may show the parent alone.
measurement_name: LD50 at 336 h (mg/kg)
Express it in mg/kg; write the number only.

Problem: Requested field: LD50 at 336 h. Item: CC(C)(C)NCC(O)c1cc(F)c(N)c(Br)c1 (single isomer, unassigned) [A-d(+), hydrochloride]
Solution: 37.2

Problem: Now the same for CC(C)(C)NCC(O)c1cc(Cl)c(N)c(C(F)(F)F)c1 (single isomer, unassigned) [G-d(+)]
Solution: 33.2

Problem: Now the same for CC(C)(C)NCC(O)c1cc(F)c(N)c(Cl)c1 (single isomer, unassigned) [D-d(+)]
Solution: 34.2

* * *

- study_target: β1 -receptors (Felis catus)
- Construct: tested on anesthetized cats; from tissue; host or cells: living anesthetized cat, heart (heart rate)
- procedure_details: β1-blocking activity: antagonism to tachycardia provoked by N-isopropyl-noradrenalin sulfate in anesthetized cats
- Type: in vivo
- settings: cat, iv, tachycardia by 1.0 γ/kg i.v. N-isopropyl-noradrenalin sulfate, graphic extrapolation (Table II), read-out: Blocking action on the β1 -receptors ED50
Structures can show the parent of a compound that is named as a salt.
For each entry below, report its ED50 value.
Express it in µg/kg; write the number only.

Problem: Requested field: ED50. Item: CCC(C)(C)NCC(O)c1cc(Cl)c(N)c(C#N)c1.Cl (stereo not drawn) [T]
Solution: 0.45

Problem: Now the same for Br.CCC(C)(C)NCC(O)c1ccc(N)c(C(F)(F)F)c1 (stereo not drawn) [F]
Solution: 35

Problem: Now the same for CC(C)(C)NCC(O)c1cc(Cl)c(N)c(C(F)(F)F)c1 (stereo not drawn) [G]
Solution: 11.5

Problem: Now the same for CC(Cc1ccc2c(c1)OCO2)NCC(O)c1cc(Cl)c(N)c(C#N)c1 (stereo not drawn) [V, hydrochloride]
Solution: 1.4

Problem: Now the same for CCC(C)NCC(O)c1cc(Cl)c(N)c(C#N)c1.Cl (stereo not drawn) [R]
Solution: 0.32

Problem: Now the same for Cl.Nc1c(F)cc(C(O)CNC2CC2)cc1I (stereo not drawn) [L]
Solution: 1.3

* * *

- study_target: β2 -receptors (Cavia porcellus)
- Construct: tested on anesthetized guinea pigs; from tissue; host or cells: living anesthetized guinea pig, airways (Konzett-Rossler)
- procedure_details: β2-mimetic activity: antagonism to acetylcholine bronchospasm in anesthetized guinea pigs (Konzett-Rossler)
- Type: in vivo
- settings: i.v. (Table I)
Where a name gives a salt, the structure may show the parent alone.
measurement_name: Duration of activity (β2 -mimetic activity)

Problem: Requested field: Duration of activity (β2 -mimetic activity). Item: CC(Cc1ccc2c(c1)OCO2)NCC(O)c1cc(Cl)c(N)c(C#N)c1 (centres unmarked) [V, hydrochloride]
Solution: > 65 min

Problem: Now the same for CC(C)(C)NCC(O)c1cc(C#N)c(N)c(C#N)c1.Cl (centres unmarked)
Solution: > 65 min

Problem: Now the same for CC(C)(C)NCC(O)c1cc(F)c(N)c(Cl)c1.Cl (centres unmarked)
Solution: > 120 min

Problem: Now the same for CC(C)(C)NCC(O)c1cc(F)c(N)c(C#N)c1.Cl (centres unmarked)
Solution: > 40 min

Problem: Now the same for CC(C)(C)NCC(O)c1cc(Br)c(N)c(C#N)c1.Cl (centres unmarked)
Solution: > 40 min

* * *

- study_target: β2 -receptors (Cavia porcellus)
- Construct: tested on anesthetized guinea pigs; from tissue; host or cells: living anesthetized guinea pig, airways (Konzett-Rossler)
- procedure_details: β2-mimetic activity: antagonism to acetylcholine bronchospasm in anesthetized guinea pigs (Konzett-Rossler)
- Assay type: in vivo
- settings: i.v. (Table I)
For each entry below, report its Duration of activity (β2 -mimetic activity) value.

Problem: Requested field: Duration of activity (β2 -mimetic activity). Item: Cl.N#Cc1cc(C(O)CNC2CCCC2)cc(Cl)c1N (centres unmarked) [U]
Solution: > 50 min

Problem: Now the same for CCC(C)(C)NCC(O)c1cc(Cl)c(N)c(C#N)c1.Cl (centres unmarked) [T]
Solution: > 40 min

Problem: Now the same for CC(C)(C)NCC(O)c1cc(Cl)c(N)c(C(F)(F)F)c1 (centres unmarked) [G]
Solution: > 130 min

Problem: Now the same for Cl.Nc1c(F)cc(C(O)CNC2CCC2)cc1Br (centres unmarked) [K]
Solution: > 50 min

Problem: Now the same for CCCNCC(O)c1cc(Cl)c(N)c(C#N)c1.Cl (centres unmarked) [Q]
Solution: 50 min

Problem: Now the same for CC(C)(C)NCC(O)c1ccc(N)c(F)c1.Cl (centres unmarked) [E]
Solution: > 80 min

Problem: Now the same for CCC(C)NCC(O)c1cc(Cl)c(N)c(C#N)c1.Cl (centres unmarked) [R]
Solution: > 80 min

Problem: Now the same for CC(C)(C)NCC(O)c1cc(Cl)c(N)c(C#N)c1 (centres unmarked) [I]
Solution: > 95 min

Problem: Now the same for CC(C)(C)N1COC(c2cc(F)c(N)c(Br)c2)C1.Cl.Cl (centres unmarked) [B]
Solution: > 110 min

Problem: Now the same for CC(C)(CO)NCC(O)c1cc(Cl)c(N)c(C#N)c1 (centres unmarked) [S]
Solution: > 65 min

Problem: Now the same for CC(C)(C)NCC(O)c1cc(F)c(N)c(Br)c1.Cl (centres unmarked) [A]
Solution: > 150 min

* * *

For each entry below, report its ED50 value.
- study_target: β2 -receptors (Cavia porcellus, UniProt Q8K4Z4)
- Construct: tested on anesthetized guinea pigs; from tissue; host or cells: living anesthetized guinea pig, airways (Konzett-Rossler)
- Sequence (Q8K4Z4 whole entry): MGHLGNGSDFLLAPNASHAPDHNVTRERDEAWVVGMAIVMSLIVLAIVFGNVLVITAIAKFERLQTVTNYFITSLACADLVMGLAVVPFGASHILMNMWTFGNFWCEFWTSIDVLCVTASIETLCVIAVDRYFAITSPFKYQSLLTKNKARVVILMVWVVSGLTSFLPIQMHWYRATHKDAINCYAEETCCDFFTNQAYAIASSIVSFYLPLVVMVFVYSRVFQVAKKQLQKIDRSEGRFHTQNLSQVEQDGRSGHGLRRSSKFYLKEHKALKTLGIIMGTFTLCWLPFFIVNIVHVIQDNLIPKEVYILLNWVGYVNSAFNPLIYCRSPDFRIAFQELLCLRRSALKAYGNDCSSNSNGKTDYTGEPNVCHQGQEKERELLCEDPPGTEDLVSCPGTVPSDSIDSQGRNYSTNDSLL
- procedure_details: β2-mimetic activity: antagonism to acetylcholine bronchospasm in anesthetized guinea pigs (Konzett-Rossler)
- Type: in vivo
- settings: guinea pig, iv, bronchospasm by 20 γ/kg acetylcholine i.v., test compound i.v., graphic extrapolation (Table I)
Express it in µg/kg; write the number only.

Problem: Requested field: ED50. Item: CC(C)(C)NCC(O)c1cc(F)c(N)c(Cl)c1.Cl (stereo not drawn)
Solution: 19

Problem: Now the same for CCC(C)NCC(O)c1cc(Cl)c(N)c(C#N)c1.Cl (stereo not drawn)
Solution: 5.7

Problem: Now the same for CC(C)(C)NCC(O)c1cc(C#N)c(N)c(C#N)c1.Cl (stereo not drawn)
Solution: 11.3

Problem: Now the same for CC(C)(C)NCC(O)c1cc(Cl)c(N)c(C#N)c1 (stereo not drawn)
Solution: 0.2

Problem: Now the same for CC(C)(C)NCC(O)c1cc(F)c(N)c(Br)c1.Cl (stereo not drawn)
Solution: 8.3

Problem: Now the same for CCC(C)(C)NCC(O)c1ccc(N)c(C#N)c1 (stereo not drawn)
Solution: 3.6

* * *

For each entry below, report its ED50 value.
- study_target: β1 -receptors (Felis catus, UniProt Q9TST6)
- Construct: tested on anesthetized cats; from tissue; host or cells: living anesthetized cat, heart (heart rate)
- Sequence (Q9TST6 whole entry): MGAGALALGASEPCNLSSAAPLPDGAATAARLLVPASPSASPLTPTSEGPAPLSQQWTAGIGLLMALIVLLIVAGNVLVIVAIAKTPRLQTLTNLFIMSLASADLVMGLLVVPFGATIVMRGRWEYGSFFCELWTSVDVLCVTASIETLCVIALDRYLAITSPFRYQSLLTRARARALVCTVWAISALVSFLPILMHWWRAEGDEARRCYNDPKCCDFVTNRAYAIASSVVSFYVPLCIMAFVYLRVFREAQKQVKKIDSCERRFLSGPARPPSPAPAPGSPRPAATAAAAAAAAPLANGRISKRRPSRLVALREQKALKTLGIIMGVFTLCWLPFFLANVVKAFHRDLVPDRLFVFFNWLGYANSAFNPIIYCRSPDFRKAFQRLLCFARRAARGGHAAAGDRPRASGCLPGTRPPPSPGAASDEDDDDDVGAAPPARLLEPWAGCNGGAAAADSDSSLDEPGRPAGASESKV
- procedure_details: β1-blocking activity: antagonism to tachycardia provoked by N-isopropyl-noradrenalin sulfate in anesthetized cats
- Format: in vivo
- settings: cat, iv, tachycardia by 1.0 γ/kg i.v. N-isopropyl-noradrenalin sulfate, graphic extrapolation (Table II), read-out: Blocking action on the β1 -receptors ED50
Express it in µg/kg; write the number only.

Problem: Requested field: ED50. Item: Cl.Nc1c(F)cc(C(O)CNC2CC2)cc1Cl (stereo not shown)
Solution: 14

Problem: Now the same for CCCNCC(O)c1cc(Cl)c(N)c(C#N)c1.Cl (stereo not shown)
Solution: 0.76

Problem: Now the same for CC(C)(C)NCC(O)c1cc(Br)c(N)c([N+](=O)[O-])c1 (stereo not shown)
Solution: 2.8

Problem: Now the same for CC(C)(C)NCC(O)c1cc(F)c(N)c(Br)c1.Cl (stereo not shown)
Solution: 18.5

Problem: Now the same for Cl.N#Cc1cc(C(O)CNC2CCCC2)cc(Cl)c1N (stereo not shown)
Solution: 0.7

Problem: Now the same for CC(C)(C)NCC(O)c1cc(Cl)c(N)c(C#N)c1 (stereo not shown)
Solution: 0.74

Problem: Now the same for CC(C)(C)NCC(O)c1cc(C#N)c(N)c(C#N)c1.Cl (stereo not shown)
Solution: 0.92

Problem: Now the same for CC(C)(C)NCC(O)c1cc(Cl)c(N)c([N+](=O)[O-])c1 (stereo not shown)
Solution: 4.5

Problem: Now the same for CC(C)(CO)NCC(O)c1cc(Cl)c(N)c(C#N)c1 (stereo not shown)
Solution: 0.76

Problem: Now the same for CC(C)NCC(O)c1cc(F)c(N)c(C#N)c1.Cl (stereo not shown)
Solution: 0.27

Problem: Now the same for Cl.Nc1c(F)cc(C(O)CNC2CCC2)cc1Br (stereo not shown)
Solution: 1.5

Problem: Now the same for CC(C)(C)NCC(O)c1cc(F)c(N)c(Cl)c1.Cl (stereo not shown)
Solution: 8

Problem: Now the same for CC(C)(C)NCC(O)c1ccc(N)c(F)c1.Cl (stereo not shown)
Solution: 13.5

Reference source for all entries: patent US4119710A
